# EXPERIMENTAL_PROTOCOL: gradient 5% acetonitrile 3 min, to 50% in 2 min, to 85% in 15 min, held 3 min, 100 µL/min
# COND: column: Zorbax Extend-C18 2.1 x 50 mm; eluents: water / acetonitrile, 0.1% formic acid
REPORTED_ENDPOINT: RP-LC retention time (s)

INSERT INTO assay_data (smi, scale_unit, endpoint_result) VALUES
  ('Fc1ccccc1-c1nc(-c2cccc(-c3ccn[nH]3)c2)no1', 's', 977),
  ('COc1ccc(S(=O)(=O)N2CCC(c3nc(C(=O)N4CCOCC4)c(C)o3)CC2)cc1', 's', 752),
  ('COc1cc(NC(=O)Cn2nc3n(c2=O)CCCCC3)cc(OC)c1OC', 's', 659),
  ('NC(=O)c1cc2cc(Br)ccc2[nH]1', 's', 719),
  ('C=CCn1c(C)c(CC(=O)NCCCC)c(=O)n2nc(-c3ccccc3)nc12', 's', 818);
